Cited source: PubChem BioAssay

# parasite load remaining annotations
- test_details: liver-stage malaria parasite growth inhibition, primary screen, cell-based, HepG2, luciferase luminescence, HepG2 viability (AID 624349);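 also: 100% = mean of DMSO negative control wells on the same plate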
- condition_context: P. berghei liver stage in HepG2, luciferase luminescence, concentration not given here; hits give low values
Write down the numeric answer in % and omit the unit.

Previously resolved entries follow.
CCCCCCCCCCNCCC (tested in a mixture with another compound); 23
CS(=O)(=O)Nc1ccc(Cc2noc(-c3ccc4[nH]cc(CCN)c4c3)n2)cc1; 62
CCN1C[C@]2(C)CC[C@H](OC)[C@@]34C1[C@]1(OCO[C@@]15C[C@H](OC)[C@H]1C[C@]3(O)[C@@H]5[C@H]1OC)[C@@H](OC(C)=O)[C@H]24; 91.7

I would be grateful if you could share the reported parasite load remaining for "CC[C@H](CO)NC(=O)[C@@H]1C=C2c3cccc4[nH]cc(c34)C[C@H]2N(C)C1" .
67.8

====

- test_details: growth inhibition of BT084 medulloblastoma cells, cell-based, ICGC_MB145, cisplatin and BGB IC40 combos (AID 1671461);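 also: cells exposed to drugs for 96 hours; 0% = vehicle DMSO and 100% = high DMSO full killing control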
- condition_context: drug combinations, at 0.5 µM, hits give high values
inhibition for assorted compounds
Kindly answer with a numeric value in %, unit omitted.

Look up inhibition: COc1cc(C2c3cc4c(cc3C(O)C3COC(=O)C23)OCO4)cc(OC)c1OC (stereo not drawn)
45.2

Value lookup for inhibition; key = "CN(C)NC(=O)CCC(=O)O"
-3.48

Which inhibition value is on record for "CC1(C)C(C(=O)Nc2ccc(S(=O)(=O)c3ccc(NC(=O)C4C(C)(C)C4(C)C)cc3)cc2)C1(C)C" ?
-6.8

Given the entry "CCC1(c2ccccc2)C(=O)NC(=O)NC1=O" , report its measured inhibition.
3.01

# lookup: inhibition of "Cc1c2ccncc2c(C)c2c1[nH]c1ccccc12"
48.9

Name the reported inhibition value associated with the compound NC(Cc1ccc(N(CCCl)CCCl)cc1)C(=O)O (stereo not drawn)
-14.6

Which inhibition reading was recorded for the compound "O=C1CCC[C@@H]2[C@H]3CCCN4CCC[C@@H](CN12)[C@@H]34" ?
3.62

Param item = "O=C(O)CCCc1ccc(N(CCCl)CCCl)cc1" ; retrieve measured inhibition.
-18.3

====

- test_details: CellTiter-Glo luminescent readout of SW480 viability loss, NPC library primary (AID 1117343)
- condition_context: CellTiter-Glo luminescence; at 20 µM (top of the series)
The source made the active and inactive calls.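 The calls were made as follows: active = compounds that lower viability of the colon cancer cells in the luminescence readout, with no numeric limit stated; inactive = the rest.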
Pick from 1 (active), 0 (inactive) when you respond.

GET /call?item= "CC[C@@H](CO)NC(=O)[C@@H]1C=C2c3cccc4c3c(cn4C)C[C@H]2N(C)C1" returns the recorded outcome of this test.
0

Outcome? "COC(=O)[C@@H](N)CCCN/C(N)=N/[N+](=O)[O-]"
0

Called result for "Oc1cc(Cl)ccc1Oc1ccc(Cl)cc1Cl"
1

In this assay, the call recorded for "CN(C)CCc1ccc(O)cc1" was what?
0

Call for entry "CC(=O)Nc1cc([As](=O)(O)O)ccc1O" :
0

====

Readings of remaining activity for the listed molecules
- Test system: Aerobactin synthetase IucA (Klebsiella pneumoniae, hypervirulent)
- test_details: IucA enzyme inhibition, biochemical, LOPAC library, absorbance readout (AID 1346212);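 also: 100% = no compound wells and 0% = no enzyme wells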
- condition_context: IucA enzyme assay, absorbance (OD) readout; hits give low values; concentration not given here
Record the value in %, omitting the unit from your answer.

In the examples that follow, each entry is paired with its recorded remaining activity.
O=C(O)C1=CC(=C(c2ccc(O)c(C(=O)O)c2)c2ccc(O)c(C(=O)O)c2)C=CC1=O; 103
CC[N+](CC)(CC)CC(=O)Nc1c(C)cccc1C; 113
CNCCc1c[nH]c2ccc(O)cc12; 121
CC1=NN=C(c2ccc(N)cc2)c2cc3c(cc2C1)OCO3; 78.1

Let us examine a further case.
Recorded remaining activity for CN1Cc2sccc2C(c2ccc(O)c(O)c2)C1 (configuration not stated) , please?
120

====

- test_details: ovarian cancer cell viability with rucaparib, profiling panel, oncology-focused library, rucaparib conditional (AID 1508598)
- condition_context: patient-derived ovarian cancer cells, CellTiter-Glo viability, 144 h; at 1.25 µM; OCI-P5x cells; without rucaparib; hits give low values
Parameter viability: see the listing below.
Answer in %, number only, no unit symbol.

Here's what some known entries look like.
Cn1cc(C2=C(c3cn(C4CCN(Cc5ccccn5)CC4)c4ccccc34)C(=O)NC2=O)c2ccccc21; 92.6
Cn1c(CCCC(=O)O)nc2cc(N(CCCl)CCCl)ccc21; 79.4
C/C(=C\c1csc(C)n1)[C@H]1C[C@@H]2O[C@]2(C)CCC[C@H](C)[C@H](O)[C@@H](C)C(=O)C(C)(C)[C@H](O)CC(=O)O1; 16.1
C/C(=C\c1csc(C)n1)[C@H]1C[C@@H]2O[C@@H]2CCC[C@H](C)[C@H](O)[C@@H](C)C(=O)C(C)(C)[C@H](O)CC(=O)O1; 14.6

Requested field: viability. Item: "Cc1sc2c(c1C)C(c1ccc(Cl)cc1)=N[C@@H](CC(N)=O)c1nnc(C)n1-2"
64.7

Field request: viability | item: "CC(C)[C@@]12O[C@@H]1[C@@H]1O[C@]13[C@]1(O[C@@H]1C[C@@H]1C4=C(CC[C@@]13C)C(=O)OC4)[C@@H]2O"
8.5

====

- Tested on: Aerobactin synthetase IucA (Klebsiella pneumoniae hvKP1)
- test_details: Biochemical IucA enzyme inhibition primary screen of the Spectrum library (AID 1346200);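 also: 100% = wells without compound and 0% = wells lacking enzyme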
- condition_context: malachite green pyrophosphate, A620, at 8 µM, hits give low values
The source made the active and inactive calls. The rule behind the calls is not given here.
Form field: activity remaining (one value per entry).

Consider the following illustrative entries.
COc1ccc2[nH]cc(CCNC(C)=O)c2c1; 111% (inactive)
O=c1c(-c2cc(O)c(O)c(O)c2)coc2cc(O)c(O)c(O)c12; 93.2% (inactive)
CC(=O)Oc1ccccc1C(=O)Oc1ccccc1C(=O)O; 97.5% (inactive)
FC(F)(F)COCC(F)(F)F; 120% (inactive)

Given the entry "Cc1cc(NS(=O)(=O)c2ccc(N)cc2)no1" , what activity remaining was observed with Aerobactin synthetase IucA (Klebsiella pneumoniae hvKP1)?
110% (inactive)

Lab note: need activity remaining with Aerobactin synthetase IucA (Klebsiella pneumoniae hvKP1) for entry "CC1(C)O[C@H]2CC(=O)OC[C@]23[C@H]2CC[C@@]4(C)[C@H](c5ccoc5)OC(=O)[C@H]5O[C@]54[C@]2(C)C(=O)C[C@@H]13" , please look it up.
112% (inactive)

What value of activity remaining on Aerobactin synthetase IucA (Klebsiella pneumoniae hvKP1) does CC(=O)CC(c1ccccc1)c1c(O)c2ccccc2oc1=O (centres undefined) have?
118% (inactive)

For the record C[C@]12CCc3occc3C1CC[C@@]13C[C@@H](CCC12)[C@@](O)(CO)C3 (some centres undefined) , what value of activity remaining is listed for Aerobactin synthetase IucA (Klebsiella pneumoniae hvKP1)?
93.4% (inactive)

Query the reported activity remaining for Aerobactin synthetase IucA (Klebsiella pneumoniae hvKP1); item: "S=c1ccss1"
84.5% (inactive)

====

- System: Aerobactin synthetase IucA (Klebsiella pneumoniae hvKP1)
- test_details: Biochemical IucA enzyme inhibition primary screen of the Spectrum library (AID 1346200);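 also: 100% = wells without compound and 0% = wells lacking enzyme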
- condition_context: malachite green pyrophosphate, A620, at 8 µM, hits give low values
attribute_measured: activity remaining (%)
# unit: % | format: bare number

Guide cases for activity remaining, answers given:
CCC(C(=O)O)c1ccccc1 (stereo not given); 123
O=c1[nH]c(=O)n(C2C[C@@H](O)[C@@H](CO)O2)cc1F (stereo not given in full); 120
C[C@@H]1CC[C@@]2(OC1)OC1CC3C4CC=C5C[C@@H](O)CC[C@]5(C)C4CC[C@]3(C)C1[C@@H]2C (stereo not given in full); 104
Cc1nccc2c1[nH]c1ccccc12; 102
CN(C)CCc1c[nH]c2ccc(CS(=O)(=O)N3CCCC3)cc12; 128
COC(=O)[C@@H]1OC(=O)C2OC23[C@@]1(C)CCC1[C@]2(C)C(C[C@@H](O)[C@]13C)C(C)(C)[C@H](OC(C)=O)C[C@@H]2OC(C)=O (stereo not given in full); 96.4
CN1CCN(C2=Nc3ccccc3Oc3ccc(Cl)cc32)CC1; 120
CC(=O)OC[C@@]1(O)C[C@@]23CCC4c5ccoc5CC[C@]4(C)C2CC[C@@H]1C3 (stereo not given in full); 119

Provide the documented activity remaining with Aerobactin synthetase IucA (Klebsiella pneumoniae hvKP1) as the system for C[N+](C)(C)CC(O)CC(=O)O (stereo not given)
99.1

Quick check: activity remaining on Aerobactin synthetase IucA (Klebsiella pneumoniae hvKP1), item "N[C@@H](Cc1ccc(N(CCCl)CCCl)cc1)C(=O)O" ?
104

====

- test_details: HepG2 cytotoxicity, primary screen, cytotoxicity control for P. falciparum antimalarial project, cell-based, ATP luminescence (AID 2303);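 also: 0% = DMSO wells and 100% = digitonin-killed cells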
- condition_context: HepG2 viability, 24-48 h, at 10 µM
The source made the active and inactive calls.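 How the source made its calls: active means inhibition above 50%; inactive means the rest.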
Reply using exactly one outcome from active, inactive

Some solved cases for reference:
COc1ccc(CC(C)NCC(O)c2cccc(C(F)(F)F)c2)cc1F (centres undefined); inactive
O=P(O)(O)Oc1c(Br)cc(Br)cc1-c1cc(Br)cc(Br)c1O; inactive
CNCCN(C)C(=O)Oc1c(Cl)c(C)nc(C)c1-c1ccc(Oc2ccc(OC(F)(F)F)cc2)cc1; inactive

Called result for "CCCN(CCC)CCOC(=O)C(OCC)(c1ccccc1)c1ccccc1"
inactive

# lookup: test call for "CC(C)CNCc1cccc(-c2ccc(CN(C(=O)Nc3ccccc3)C3CCN(Cc4ccccc4)CC3)cc2)c1"
inactive

Tell me the assay call for "COc1cccc(CN2CCC(CCOC(c3ccccc3)c3ccccc3)CC2)c1O" please.
inactive

Give the logged outcome of this assay for the following compound: "CC[C@H]1CN2CC[C@H]1C[C@@H]2[C@@H](OC(=O)c1ccc(Cl)cc1)c1ccnc2ccc(OC)cc12"
inactive
